- studyTarget: corticotropin releasing factor 1 receptor
- testSummary: cell-based or functional assay
Ends that are not written are not given here.
# note: exactly 60% is not below, so it is Not fulfilled; use Fulfilled for CRF1R Emax % strictly under it

- binder: "ZGPPISIDLPQILLRKVIEIEKQEKEKQQAANNARLLARI (C-terminal amide) [SEQ ID NO 294]"
  className: "Fulfilled"
- binder: "ZGPPISIDLPIFLLRKMIEIEKQEKEKQQAANNARLLARI (C-terminal amide) [SEQ ID NO 282]"
  className: "Fulfilled"
- binder: "ZGPPISIDLPQILLRKVIEIEKQEKEKQQAANNRLLLDTI (C-terminal amide) [SEQ ID NO 293]"
  className: "Not fulfilled"
- binder: "ZGPPISIDLPIYLLRKMIEIEKQEKEKQQAANNALLLDTI (C-terminal amide) [SEQ ID NO 236]"
  className: "Fulfilled"
- binder: "DNPSLSIDLPLLLLRTLLELEKTQSQRERAEQNARIFDRV-NH2 [SEQ ID NO 338]"
  className: "Fulfilled"

Bench note: check whether ZGPPISIDLPFQLLRKVIEIEKQEKEKQQAANNAQLLAQI (C-terminal amide) [SEQ ID NO 276] shows CRF1R Emax % below 60%
Not fulfilled

# TODO verify CRF1R Emax % < 60% strictly for this binder: ZGPPISIDLPLHLLRKMIEIEKQEKEKQQAANNALLLATI (C-terminal amide) [SEQ ID NO 241]
Not fulfilled

is_below(CRF1R Emax %, 60%) for ZGPPISIDLPTYLLRKMIEIEKQEKEKQQAANNALLLATI (C-terminal amide) [SEQ ID NO 233] ?
Fulfilled
